FYI, the data here is from paper PMC5540273.

# System: EGFR;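 note: KINOMEscan kinase panel screen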
# STUDY_CONDITIONS: concentration: 1 μM, replicates: in singlicate; n = 1
Could you please report measured %Inh for the items listed next?
Form entry: value (%) — number only.

(Q) Requested field: %Inh. Item: CCc1nc(-c2cccc(N(C)S(=O)(=O)c3ccccc3)c2)c(-c2ccnc(Nc3ccc(N4CCN(C(C)=O)CC4)nc3)n2)s1 [GSK1645895]
(A) 79

(Q) I am curious: what %Inh value has been reported for Fc1cccc(COc2ccc(Nc3ncnc4sc(-c5ccc[nH]5)cc34)cc2Cl)c1 [GW707818] ?
(A) 100

(Q) Which %Inh value is on record for COc1ccc(NC(=O)Nc2ccc(C)c(-c3ccc(C(=O)Nc4ccncc4)cc3)c2)cc1 [GSK1398475] ?
(A) 33

(Q) What does the record list as %Inh for Cc1cc(N2CCC(NS(=O)(=O)c3ccc(F)cc3)CC2)nc(Nc2cccc(C#N)c2)n1.O=C(O)C(F)(F)F [GSK1653537] ?
(A) 50

(Q) Which %Inh reading was recorded for the compound COC(=O)c1cccc(NC(=O)NCCNc2ccnc(Nc3ccc(F)cc3)n2)c1 [GSK1379883] ?
(A) 3

(Q) What value of %Inh has been reported for the following compound? COc1cc2c(Nc3cccc(NC(=O)c4ccccc4)c3)ncnc2cc1OCCCN1CCOCC1 [GSK223810]
(A) 87

(Q) Query: %Inh; subject: CCCc1ccc(S(=O)(=O)NC2CCN(c3ccnc(Nc4ccc(OC)cc4)n3)C2)cc1 (centres unmarked) [GSK1379737]
(A) 32

(Q) If you can, please state the reported %Inh value of Cl.Cl.c1ccc(-c2cc3ccncc3cc2OC2CCNCC2)cc1 [GSK1122999] .
(A) 23

(Q) I have this compound here, FC(F)(F)c1ccc(-c2cc(-c3c[nH]nc3-c3ccccn3)ccn2)cc1 [GW599550] , and I need its recorded %Inh.
(A) 18

(Q) Fill in: %Inh of CN1CCC(n2cnc(-c3ccc(F)cc3)c2-c2ccnc(NC3CCNCC3)n2)CC1 [SB-229482] is ___
(A) 17

(Q) Find the recorded %Inh belonging to "O=C(CCO)NCCn1ccc2ncnc(Nc3ccc(Oc4cccc(C(F)(F)F)c4)c(Cl)c3)c21" and report it.
(A) 100

(Q) If you can, please state the reported %Inh value of "CCc1nc(-c2cccc(C)c2)c(-c2ccnc(NC(=O)c3ccccc3)c2)s1" .
(A) 24

(Q) Item under review: Nc1nc(-c2ccccn2)c(-c2ccnc3ccccc23)s1 [GW548057] . Reported %Inh?
(A) 16

(Q) Value lookup for %Inh; key = CC(=O)Nc1n[nH]c2ncc(-c3ccccc3)cc12 [SB-548492]
(A) 3

(Q) // returns reported %Inh for input C[C@H]1CC[C@@H](C(=O)Nc2ccccc2)CN1c1cc(-c2ccc3c(N)n[nH]c3c2)nc(N)n1 [GSK2283293]
(A) 30

(Q) // lookup %Inh for CSc1ccc(NC2=C(c3ccccc3Cl)C(=O)NC2=O)cc1 [SB-342411]
(A) 18

(Q) What measured %Inh goes with CNc1nccc(-c2c(-c3ccc(F)cc3)ncn2C2CCN(C)CC2)n1 [SB-222903] ?
(A) 8

(Q) What value of %Inh has been recorded for this entry: "O=C(Nc1ccccc1)Nc1ccc(Oc2ccc3nccn3n2)cc1"
(A) 23

(Q) Which measured %Inh value corresponds to Cn1cc(-c2ccc3c(c2)CCN3C(=O)Cc2cccc(C(F)(F)F)c2)c2c(N)ncnc21 [GSK2606414] ?
(A) 20

(Q) Tell me the measured %Inh of Nc1nc(-c2ccc3c(N)n[nH]c3c2)cc(N2CCCCC2)n1 [GSK2228768] , please.
(A) 3
